- System: P388 leukemia ip, CD2F1 mice, survival T/C
- protocol-notes: NCI In Vivo Anticancer Drug Screen. Data for tumor model P388 Leukemia (intraperitoneal) in CD2F1 (CDF1) mice
- measurement-parameters: endpoint: median survival time; dose: 50.0 mg/kg/injection; schedule: Q01DX009 (ip); vehicle: water; higher = longer survival
Toxic doses and inconclusive results are not listed.
Here, each record is paired with measured T/C data.

{"compound": "CCCCCCCCCCCCCCCC[N+](C)(C)CC[S+](C)C", "observable": "T/C", "result-value": "100 % of control"}
{"compound": "COC(=O)C1C(C)(C)N=[N+]([O-])C1(C)C (centres undefined)", "observable": "T/C", "result-value": "99 % of control"}
{"compound": "O=NCC(=O)OCc1ccccc1", "observable": "T/C", "result-value": "95 % of control"}
{"compound": "COC(=O)C(N)C(C)O (centres undefined)", "observable": "T/C", "result-value": "89 % of control"}

Recorded T/C (compound COc1cccc(C(=O)c2ccncc2C)c1OC ): 100 % of control

Recorded T/C (compound O=NNc1ccc([N+](=O)[O-])cc1 ): 159 % of control

Recorded T/C (compound CC(=O)OCCSCCO ): 99 % of control

Recorded T/C (compound N#Cc1cccc(CN2CCCNCC2)c1 ): 109 % of control

Recorded T/C (compound O=C(O)CC[P+](c1ccccc1)(c1ccccc1)c1ccccc1 ): 102 % of control

* * *

Here, each record is paired with measured T/C data.
- Tested on: P388 leukemia ip, CD2F1 mice, survival T/C
- protocol-notes: NCI In Vivo Anticancer Drug Screen. Data for tumor model P388 Leukemia (intraperitoneal) in CD2F1 (CDF1) mice
- measurement-parameters: endpoint: median survival time; dose: 50.0 mg/kg/injection; schedule: Q01DX009 (ip); vehicle: saline with Tween-80; higher = longer survival
Inconclusive results and toxic doses are left out.

{"compound": "CC1CC(=O)Nc2ncccc2N1 (stereo not given)", "T/C": "94 % of control"}
{"compound": "CC(C)(C)N=C(CCN1CCCCC1)Nc1ccc(Cl)cc1", "T/C": "113 % of control"}
{"compound": "CC(C)COP(=O)(OCC(C)C)OCC(C)C", "T/C": "109 % of control"}
{"compound": "C#CC(OC(=O)NC1CCCCC1)(c1ccccc1)c1ccccc1", "T/C": "102 % of control"}
{"compound": "CC(C)N(C(=O)C1CCN(Cc2c[nH]c3ccccc23)CC1)C(C)C", "T/C": "101 % of control"}
{"compound": "O=S(CCCl)c1ccccc1 (stereo not given)", "T/C": "97 % of control"}

Recorded T/C (compound Cc1ccc(NC(=O)Oc2ccc(F)cc2)c([N+](=O)[O-])c1 ): 96 % of control

Recorded T/C (compound O[O][Sn][c]1ccccc1 ): 100 % of control

Recorded T/C (compound NC(/N=C/c1cc(Cl)cc(Cl)c1O)=N\S(=O)(=O)c1ccc(N=Cc2cc(Cl)cc(Cl)c2O)cc1 ): 98 % of control

* * *

- System: P388 leukemia ip, CD2F1 mice, survival T/C
- protocol-notes: NCI In Vivo Anticancer Drug Screen. Data for tumor model P388 Leukemia (intraperitoneal) in CD2F1 (CDF1) mice
- measurement-parameters: endpoint: median survival time; dose: 100.0 mg/kg/injection; schedule: Q01DX005 (ip); vehicle: saline with Tween-80; higher = longer survival
Toxic doses and inconclusive results are not listed.
Here, each record is paired with measured T/C data.

{"molecule": "CCN(CC)CCN(C(=O)OCCOC(=O)N(CCN(CC)CC)c1cccc2sc3ccccc3c(=O)c12)c1cccc2sc3ccccc3c(=O)c12", "result-value": "106 % of control"}
{"molecule": "CC(C)c1cccc(C(C)C)c1NC(=O)CCc1n[nH]c(=S)o1", "result-value": "106 % of control"}
{"molecule": "O=P1(c2ccccc2)Cc2ccccc2N1Cc1ccccc1 (stereo unspecified)", "result-value": "103 % of control"}
{"molecule": "O=C(Nc1cccc(Cl)c1)Nc1ccc(Sc2ccc(Cl)cc2)o1", "result-value": "88 % of control"}
{"molecule": "CCc1ccc2c(c1)C(O)(c1ccccc1)c1c(c(-c3ccccc3)c3ccccc3c1-c1ccccc1)C2(O)c1ccccc1 (stereo unspecified)", "result-value": "89 % of control"}

Observed T/C on P388 leukemia ip, CD2F1 mice, survival T/C, entry NNC(=O)SCCC(=O)O , equals 97 % of control

Observed T/C on P388 leukemia ip, CD2F1 mice, survival T/C, entry CC(C)(C)OC(=O)c1cccc(Br)c1 , equals 104 % of control

Observed T/C on P388 leukemia ip, CD2F1 mice, survival T/C, entry COC(=O)/C(C)=N/SC(c1ccccc1)(c1ccccc1)c1ccccc1 , equals 104 % of control

Observed T/C on P388 leukemia ip, CD2F1 mice, survival T/C, entry NC(CCS)C(=O)O (stereo unspecified) , equals 92 % of control

* * *

Here, each record is paired with measured T/C data.
- Tested on: P388 leukemia ip, CD2F1 mice, survival T/C
- protocol-notes: NCI In Vivo Anticancer Drug Screen. Data for tumor model P388 Leukemia (intraperitoneal) in CD2F1 (CDF1) mice
- measurement-parameters: endpoint: median survival time; dose: 100.0 mg/kg/injection; schedule: Q01DX005 (ip); vehicle: Klucel (hydroxypropylcellulose) (HPC); higher = longer survival
Inconclusive results and toxic doses are left out.

{"molecule": "C[C@]12CCC(=O)C(O)=C1CC[C@H]1[C@@H]3CCC(=O)[C@@]3(C)CC[C@@]12O", "T/C": "104 % of control"}
{"molecule": "O=c1c2ccccc2c(=O)n2n1C1C=CC2C1", "T/C": "105 % of control"}
{"molecule": "CC(=O)Nc1c(Br)cc(Br)c2c1C(=O)c1ccccc1-2", "T/C": "91 % of control"}
{"molecule": "CC1NC(=O)NC(=O)C1=S (stereo unspecified)", "T/C": "111 % of control"}
{"molecule": "CC(=O)Nc1ccc2c(=O)n(O)c(=O)[nH]c2c1", "T/C": "103 % of control"}

Recorded T/C (molecule CCCCN1C(=O)/C(=C/c2ccccc2OC)SC1=S ): 94 % of control

* * *

- Test system: P388 leukemia ip, CD2F1 mice, survival T/C
- protocol-notes: NCI In Vivo Anticancer Drug Screen. Data for tumor model P388 Leukemia (intraperitoneal) in CD2F1 (CDF1) mice
- measurement-parameters: endpoint: median survival time; dose: 25.0 mg/kg/injection; schedule: Q01DX009 (ip); vehicle: saline with Tween-80; higher = longer survival
Inconclusive results and toxic doses are left out.
observable: T/C

{"compound": "O=C(O)C(=O)O.O=N[O-].[Co+3].[NH-]CC[N-]CC[NH-]", "assayed-target": "P388 leukemia ip, CD2F1 mice, survival T/C", "T/C": "108 % of control"}

Recorded T/C (compound O=c1[nH]ccc2occc12 ): 100 % of control

Recorded T/C (compound CCC(SC)(SC)C(=O)N(C)c1ccccc1 ): 100 % of control

Recorded T/C (compound CC(C)(C)C(=O)CS(=O)(=O)CC(=O)C(C)(C)C ): 112 % of control

Recorded T/C (compound OC1CC2CC1C1C3C=CC(C3)C21 (stereo unspecified) ): 102 % of control

Recorded T/C (compound COc1cc(C)c2c(=O)c3c(oc2c1)C(=O)c1c(O)c(OC)cc(O)c1C3=O ): 108 % of control

Recorded T/C (compound O=S(CCCl)c1ccccc1 (stereo unspecified) ): 96 % of control

Recorded T/C (compound CN(C)CCCN1c2ccccc2Sc2ccc(Cl)cc21 ): 100 % of control

Recorded T/C (compound O=C(NC1CC1)c1ccccc1 ): 96 % of control

Recorded T/C (compound NNc1ccc2nccn2n1 ): 94 % of control

Recorded T/C (compound C=C1CCC2C1C1C(C(C)C)CCC21C (stereo unspecified) ): 96 % of control

* * *

- Tested on: P388 leukemia ip, CD2F1 mice, survival T/C
- protocol-notes: NCI In Vivo Anticancer Drug Screen. Data for tumor model P388 Leukemia (intraperitoneal) in CD2F1 (CDF1) mice
- measurement-parameters: endpoint: median survival time; dose: 12.5 mg/kg/injection; schedule: Q04DX003 (ip); vehicle: saline; higher = longer survival
Inconclusive results and toxic doses are left out.
observable: T/C

Example entries begin here.
{"molecule": "O=CC1CO1 (stereo not given)", "T/C": "112 % of control"}
{"molecule": "Nc1ccc(C(=O)CCCN2CCCCC2)cc1", "T/C": "91 % of control"}

Recorded T/C (molecule FC(F)(F)c1ccc2c(c1)N(CCCN1CCN(CCCl)CC1)c1ccccc1S2 ): 101 % of control

Recorded T/C (molecule [Cl][Pt+2][Cl].[NH-]CC([NH-])CN ): 111 % of control

Recorded T/C (molecule CCC[CH2][Sn]1([CH2]CCC)[O]C2C(OC)OC3COC(c4ccccc4)OC3C2[O]1 (stereo not given) ): 105 % of control
